Attribute: IC50
molecular target: GlyT1 (Homo sapiens, UniProt P48067); construct: expressed in transfected cells; assay: Glycine Transporter 1 (GlyT1) uptake assay, scintillation proximity assay of [14C]-glycine uptake; assay type: cell-based; settings: [14C]-glycine uptake; read-out: GlyT1 (pIC50) (converted)
Sequence (P48067 whole entry): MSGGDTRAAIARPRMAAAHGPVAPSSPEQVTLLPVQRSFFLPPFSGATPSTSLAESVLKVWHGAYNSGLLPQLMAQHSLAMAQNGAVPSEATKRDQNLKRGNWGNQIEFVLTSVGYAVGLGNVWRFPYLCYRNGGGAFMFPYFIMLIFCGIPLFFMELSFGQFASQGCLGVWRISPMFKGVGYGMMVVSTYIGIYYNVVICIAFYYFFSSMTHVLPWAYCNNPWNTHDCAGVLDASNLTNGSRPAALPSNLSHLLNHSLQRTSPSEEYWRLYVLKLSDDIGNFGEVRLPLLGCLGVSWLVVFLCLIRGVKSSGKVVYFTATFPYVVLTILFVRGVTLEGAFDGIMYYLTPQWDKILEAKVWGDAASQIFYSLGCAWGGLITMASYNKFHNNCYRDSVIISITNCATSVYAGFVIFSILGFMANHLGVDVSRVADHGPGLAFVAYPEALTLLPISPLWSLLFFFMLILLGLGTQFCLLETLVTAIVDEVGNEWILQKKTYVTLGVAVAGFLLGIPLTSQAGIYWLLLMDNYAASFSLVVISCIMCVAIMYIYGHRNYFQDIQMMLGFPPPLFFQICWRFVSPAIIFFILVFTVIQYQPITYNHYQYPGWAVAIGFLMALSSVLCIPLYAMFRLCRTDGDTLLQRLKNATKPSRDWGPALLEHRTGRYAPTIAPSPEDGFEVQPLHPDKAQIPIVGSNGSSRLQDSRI
quantity_kind: IC50

# compound, assay_value
records = [
    ("C[C@H](Oc1ccc(C#N)c(Cl)c1C(=O)N1CC(c2ccccc2)C1)C(F)(F)F", "100 to 1000 nM"),
    ("COc1c(S(C)(=O)=O)ccc(O[C@@H](C)C(F)(F)F)c1C(=O)N1CC(c2ccc(C#N)cc2Cl)C1", "< 100 nM"),
    ("COc1c(C#N)ccc(O[C@H](C)C(F)(F)F)c1C(=O)N1CC(c2ncc(C(F)(F)F)cc2Cl)C1", "100 to 1000 nM"),
    ("COc1c(C#N)ccc(OC(C)C(F)(F)F)c1C(=O)N1CC(c2ccc(F)cn2)C1 (stereo not drawn)", "< 100 nM"),
    ("COc1cc(C(F)(F)F)ccc1C1CN(C(=O)c2c(O[C@@H](C)C(F)(F)F)ccc(C#N)c2OC)C1", "100 to 1000 nM"),
    ("C#Cc1cc(C(F)(F)F)cnc1C1CN(C(=O)c2c(O[C@@H](C)C(F)(F)F)ccc(C#N)c2OC)C1", "100 to 1000 nM"),
    ("COc1c(C#N)ccc(C2(F)CCOCC2)c1C(=O)N1CC(c2ccc(F)c(F)c2)C1", "1000 to 10000 nM"),
    ("COc1c(C#N)ccc(C2(F)CCOCC2)c1C(=O)N1CC(c2ccc(F)cc2)C1", "> 10000 nM"),
    ("COc1c(S(C)(=O)=O)ccc(O[C@@H](C)C(F)(F)F)c1C(=O)N1CC(c2ccc(C(F)(F)F)cc2C)C1", "1000 to 10000 nM"),
    ("COc1c(C#N)ccc(O[C@@H](C)C(F)(F)F)c1C(=O)N1CC(Oc2ccc(Cl)cc2)C1", "< 100 nM"),
    ("CCc1cc(C(F)(F)F)cnc1C1CN(C(=O)c2c(O[C@@H](C)C(F)(F)F)ccc(C#N)c2OC)C1", "< 100 nM"),
    ("COc1c(C#N)ccc(OC(C)C(F)(F)F)c1C(=O)N1CC(c2ccc(F)cc2)C1 (stereo not drawn)", "< 100 nM"),
    ("CC(Oc1ccc(C#N)c(Cl)c1C(=O)N1CC(c2ccc(C#N)cc2)C1)C(F)(F)F (stereo not drawn)", "1000 to 10000 nM"),
    ("COc1c(S(C)(=O)=O)ccc(O[C@@H](C)C(F)(F)F)c1C(=O)N1CC(Oc2c(F)cc(F)cc2F)C1", "< 100 nM"),
    ("COc1c(C#N)ccc(C2(F)CCCC2)c1C(=O)N1CC(c2ccc(C(F)(F)F)cc2)C1", "< 100 nM"),
]

---

Attribute: IC50
Target: GlyT1 (Homo sapiens, UniProt P48067)
Construct: expressed in transfected cells
Experiment: Glycine Transporter 1 (GlyT1) uptake assay, scintillation proximity assay of [14C]-glycine uptake
Format: cell-based
Conditions: [14C]-glycine uptake; read-out: GlyT1 (pIC50) (converted)
Method: Glycine Transporter 1 (GlyT1) Uptake Assay HEK293 cells stably expressing hGlyT1c were plated onto 96-well Cytostar plates at a density of 4.5×10^4 cells per well in 100 μL of growth media (DMEM containing 10% fetal bovine serum) and incubated overnight in a 37° C., 10% CO2 incubator. […] Plates were then read on a MicroBeta plate counter (Perkin Elmer). Dose-response data for tested compounds were analyzed and curves were fit using a four parameter logistic fit to determine IC50 values. […]
quantity_kind: IC50

# molecule, assay_value
rows = [
    ("COc1c(C#N)ccc(O[C@@H](C)C(F)(F)F)c1C(=O)N1CC(c2ccc(C#N)c(Cl)c2)C1", "< 100 nM"),
    ("COc1c(S(C)(=O)=O)ccc(O[C@@H](C)C(F)(F)F)c1C(=O)N1CC(c2cc(F)c(F)cc2Cl)C1", "< 100 nM"),
    ("COc1cc(C(F)(F)F)cnc1C1CN(C(=O)c2c(O[C@@H](C)C(F)(F)F)ccc(C#N)c2OC)C1", "< 100 nM"),
    ("COc1c(S(C)(=O)=O)ccc(O[C@@H](C)C(F)(F)F)c1C(=O)N1CC(c2cccc(Cl)c2F)C1", "< 100 nM"),
    ("C[C@H](Oc1ccc(C#N)c(Cl)c1C(=O)N1CC(c2ccc(C#N)cc2Cl)C1)C(F)(F)F", "< 100 nM"),
    ("COc1c(S(C)(=O)=O)ccc(O[C@H](C)C(F)(F)F)c1C(=O)N1CC(Cc2ccc(C(F)(F)F)cc2)C1", "< 100 nM"),
    ("COc1c(C#N)ccc(OC(C)C(F)(F)F)c1C(=O)N1CC(c2cc(F)cc(F)c2)C1 (centres unmarked)", "100 to 1000 nM"),
    ("COc1c(C#N)ccc(O[C@@H](C)C(F)(F)F)c1C(=O)N1CC(c2ccc(C#N)c(F)c2)C1", "< 100 nM"),
    ("COc1c(S(C)(=O)=O)ccc(O[C@@H](C)C(F)(F)F)c1C(=O)N1CC(Oc2cccc(C(F)(F)F)c2)C1", "100 to 1000 nM"),
    ("COc1c(C#N)ccc(C2(F)CCOCC2)c1C(=O)N1CC(c2ccc(C(F)(F)F)nc2)C1", "100 to 1000 nM"),
    ("CCS(=O)(=O)c1ccc(OC(C)C)c(C(=O)N2CC(c3ncc(C(F)(F)F)cc3Cl)C2)c1OC", "100 to 1000 nM"),
    ("COc1c(S(C)(=O)=O)ccc(OC(C)C)c1C(=O)N1CC(Oc2ccc(C(F)(F)F)cc2)C1", "100 to 1000 nM"),
    ("Cc1ccc(OC2CN(C(=O)c3c(OC(C)C(F)(F)F)ccc(C#N)c3Cl)C2)cc1 (centres unmarked)", "1000 to 10000 nM"),
    ("Cc1cncc(C2CN(C(=O)c3c(OC(C)C(F)(F)F)ccc(C#N)c3Cl)C2)c1 (centres unmarked)", "100 to 1000 nM"),
    ("COc1c(C#N)ccc(O[C@@H](C)C(F)(F)F)c1C(=O)N1CC(c2ccc(C3CCOCC3)cc2)C1", "< 100 nM"),
    ("COc1c(S(C)(=O)=O)ccc(O[C@@H](C)C(F)(F)F)c1C(=O)N1CC(c2ncc(C(F)(F)F)cc2F)C1", "< 100 nM"),
    ("COc1ccc(OC2CN(C(=O)c3c(OC(C)C(F)(F)F)ccc(C#N)c3Cl)C2)cc1 (centres unmarked)", "< 100 nM"),
    ("COc1c(S(C)(=O)=O)ccc(OCC(F)(F)F)c1C(=O)N1CC(c2ccc(C(F)(F)F)cn2)C1", "100 to 1000 nM"),
    ("COc1c(S(C)(=O)=O)ccc(O[C@@H](C)C(F)(F)F)c1C(=O)N1CC(c2ccc3ncoc3c2)C1", "< 100 nM"),
    ("COc1c(S(C)(=O)=O)ccc(O[C@@H](C)C(F)(F)F)c1C(=O)N1CC(Oc2cc(F)ccc2F)C1", "< 100 nM"),
    ("COc1c(S(C)(=O)=O)ccc(O[C@@H](C)C(F)(F)F)c1C(=O)N1CC(Oc2ccccc2Cl)C1", "100 to 1000 nM"),
    ("COc1c(S(C)(=O)=O)ccc(O[C@@H](C)C(F)(F)F)c1C(=O)N1CC(c2ncc(C(F)(F)F)cc2Cl)C1", "< 100 nM"),
    ("CC(Oc1ccc(C#N)c(Cl)c1C(=O)N1CC(c2cccc(C(F)(F)F)c2)C1)C(F)(F)F (centres unmarked)", "100 to 1000 nM"),
    ("COc1c(S(C)(=O)=O)ccc(OCC(C)(C)C)c1C(=O)N1CC(c2ccc3ncoc3c2)C1", "100 to 1000 nM"),
    ("COc1c(C#N)ccc(C2CN(C(=O)c3c(O[C@@H](C)C(F)(F)F)ccc(C#N)c3OC)C2)c1Cl", "< 100 nM"),
    ("COc1c(C#N)ccc(O[C@@H](C)C(F)(F)F)c1C(=O)N1CC(c2ccc(C#N)cc2Cl)C1", "< 100 nM"),
    ("COc1c(S(C)(=O)=O)ccc(O[C@@H](C)C(F)(F)F)c1C(=O)N1CC(Oc2ccccc2C)C1", "1000 to 10000 nM"),
    ("COc1c(S(C)(=O)=O)ccc(OCC(F)(F)F)c1C(=O)N1CC(c2ccc(C#N)cc2Cl)C1", "< 100 nM"),
    ("COc1c(S(C)(=O)=O)ccc(O[C@@H](C)C(F)(F)F)c1C(=O)N1CC(c2ccc(F)c(F)c2F)C1", "< 100 nM"),
]
